assay-system: Claudin18.2-His protein (human)
method-description: indirect ELISA on coated Claudin18.2-His
Below: a set of entries, each annotated with reported EC50.
parameter-measured: EC50 (µg/mL)

1. 186F7E10 (antibody, V domains shown) VH: EVMLVESGGGLVKPGGSLKLSCAASRFTLNSYAMSWIRQTPEKKLEWVATITSGVSHTYYFDSVKGRFTISRDTAKNTLNLQMNSLRSEDTAVYYCARLYYGNSLDYWGQGTSVTVSS VL: DIVMTQSPSSLTVTAGEKVTVSCKSSQSLLNSGNQKNYLTWYQQKPGQPPKLLIYWASTRESGVPDRFTGSGSGTDFTLTISSVQSEDLAVYYCQNNYIYPLTFGAGTTLELK; 0.0109
2. 273F3D4 (antibody, V domains shown) VH: QVQLKESGPGLVAPSQSLSITCTVSGFALTTYGVSWVRQPPGKGLEWLGVIWGDGSTHYHSALISRLSIRKDNSKSQVFLKLNSLQTDDTATYYCAKPGRGNAMDYWGQGTSVTVSS VL: DIVMSQSPSSLTVTAGEKVTMSCKSSQSLLNSGNQKNYLTWYQQKPGQSPKLLIYWASTRESGVPDRFTGSGSGTDFTLTISSMQAEDLAVYYCQNDYIYPLTFGAGTMLELK; 0.0233
3. 426D9F6 (antibody, V domains shown) VH: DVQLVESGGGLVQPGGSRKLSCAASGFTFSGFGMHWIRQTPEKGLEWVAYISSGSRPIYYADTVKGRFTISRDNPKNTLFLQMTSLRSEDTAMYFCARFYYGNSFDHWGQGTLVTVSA VL: DIVMTQSPSFLTVTAGEKVTMSCKSSQSLLNSGNQRNYLTWYQQKPGQPPKLLIYWASTRESGVPDRFTGSGSGTDFTLTVSSVQAEDLALYYCQNAYSFPLTFGAGTKLELK; 0.0112
